These data points were gathered from patent US10428081B2.

- tested-system: exon 20 T790M mutant-type EGFR enzyme (Homo sapiens, UniProt P00533, T790M)
- Sequence (P00533 25-1210 T790M): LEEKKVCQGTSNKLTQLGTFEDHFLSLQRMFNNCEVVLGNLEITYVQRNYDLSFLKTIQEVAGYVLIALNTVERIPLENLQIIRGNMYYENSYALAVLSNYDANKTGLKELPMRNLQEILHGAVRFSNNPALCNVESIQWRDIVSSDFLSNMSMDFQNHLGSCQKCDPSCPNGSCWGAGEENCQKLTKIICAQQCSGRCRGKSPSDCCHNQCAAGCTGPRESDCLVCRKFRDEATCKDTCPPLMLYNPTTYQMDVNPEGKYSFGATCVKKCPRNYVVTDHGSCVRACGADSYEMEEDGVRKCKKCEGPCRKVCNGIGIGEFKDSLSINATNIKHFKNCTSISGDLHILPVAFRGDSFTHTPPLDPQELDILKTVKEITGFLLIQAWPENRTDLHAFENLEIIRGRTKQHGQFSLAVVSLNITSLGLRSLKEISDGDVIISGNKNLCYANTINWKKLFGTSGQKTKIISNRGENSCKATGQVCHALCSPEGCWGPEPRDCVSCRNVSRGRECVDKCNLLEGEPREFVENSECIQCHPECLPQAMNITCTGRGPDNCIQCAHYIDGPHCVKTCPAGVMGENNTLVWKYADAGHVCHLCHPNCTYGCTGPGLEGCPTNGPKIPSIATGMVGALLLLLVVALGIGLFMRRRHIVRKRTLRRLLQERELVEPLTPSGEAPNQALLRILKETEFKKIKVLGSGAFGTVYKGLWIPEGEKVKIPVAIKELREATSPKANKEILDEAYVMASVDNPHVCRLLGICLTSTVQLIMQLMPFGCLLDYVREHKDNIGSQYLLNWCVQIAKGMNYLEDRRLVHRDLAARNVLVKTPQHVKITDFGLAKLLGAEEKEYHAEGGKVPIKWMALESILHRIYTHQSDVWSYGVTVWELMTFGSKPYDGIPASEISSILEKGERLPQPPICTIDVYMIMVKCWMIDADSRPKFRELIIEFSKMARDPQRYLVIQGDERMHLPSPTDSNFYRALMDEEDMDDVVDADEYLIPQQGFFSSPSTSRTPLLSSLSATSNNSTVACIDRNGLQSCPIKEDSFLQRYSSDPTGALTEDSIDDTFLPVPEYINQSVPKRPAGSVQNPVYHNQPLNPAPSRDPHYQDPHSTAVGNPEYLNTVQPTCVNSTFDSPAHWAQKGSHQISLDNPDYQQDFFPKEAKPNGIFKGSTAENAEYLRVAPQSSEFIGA
- assay-name: Enzymologic experiment of T790M mutant-type EGFR (TR-FRET)
- Format: biochemical
- study-conditions: T790M EGFR enzyme, TR-FRET, ATP 1 to 10 uM
reported-property: IC50
# answer = value followed by unit

- chem-smiles: "C=CC(=O)Nc1cc(Nc2nccc(-c3cn(S(=O)(=O)N(C)C)c4ccccc34)n2)c(OC(F)F)cc1N(C)CCN(C)C"
  result: "0.3 nM"
- chem-smiles: "C=CC(=O)Nc1cc(Nc2nccc(-n3c(C)nc4cc(OC)ccc43)n2)c(OC)cc1N(C)CCN(C)C"
  result: "28.1 nM"
- chem-smiles: "C=CC(=O)Nc1cc(Nc2nccc(-c3cn(C)c4cc(OC)ccc34)n2)c(OC)cc1N(C)CCN(C)C"
  result: "0.36 nM"
- chem-smiles: "C=CC(=O)Nc1cc(Nc2ncc(Cl)c(-n3nc(CCC)c4cc(C#N)ccc43)n2)c(OC)cc1N(C)CCN(C)C"
  result: "0.8 nM"
- chem-smiles: "C=CC(=O)Nc1cc(Nc2nccc(-c3cn(C)c4cc(P(C)(C)=O)ccc34)n2)c(OC(F)F)cc1N(C)CCN(C)C"
  result: "2.74 nM"

**Query** Which IC50 value is on record for C=CC(=O)Nc1cc(Nc2nccc(-c3cn(C)c4ccc(C5CC5)cc34)n2)c(OC)cc1N(C)CCN(C)C ?
**Result** 2.75 nM

**Query** What do you have for C=CC(=O)Nc1cc(Nc2ncc(C(F)(F)F)c(-n3ncc4cc(OC)ccc43)n2)c(OC)cc1N(C)CCN(C)C ?
**Result** 0.17 nM
